The measured values listed here are drawn from ChEMBL document CHEMBL5727484.

# experiment description: Cell-Based Assay of NHE-3 Activity: Rat NHE-3-mediated Na+-dependent H+ antiport was measured using a modification of the pH sensitive dye method originally reported by Tsien (Proc. Natl. Acad. Sci. USA. (1984) 81(23): 7436-7440). Opossum kidney (OK) cells were obtained from the ATCC and propagated per their instructions. The rat NHE-3 gene was introduced into OK cells via electroporation, seeded into 96 well plates and grown overnight. Medium was aspirated from the wells, cells were washed twice with NaCl-HEPES buffer (100 mM NaCl, 50 mM HEPES, 10 mM glucose, 5 mM KCl, 2 mM CaCl2, 1 mM MgCl2, pH 7.4), then incubated for 30 min at room temperature with NH4Cl-HEPES buffer (20 mM NH4Cl, 80 mM NaCl, 50 mM HEPES, 5 mM KCl, 2 mM CaCl2, 1 mM MgCl2, pH 7.4) containing 5 uM BCECF-AM (Invitrogen). Cells were washed twice with Ammonium free, Na+-free HEPES (100 mM choline, 50 mM HEPES, 10 mM glucose, 5 mM KCl, 2 mM CaCl2, 1 mM MgCl2, pH 7.4) and incubated in the same buffer for 10 minutes at room temperature to lower intracellular pH. […] Initial rates were plotted as the average 3-6 replicates, and pIC50 values were estimated using GraphPad Prism.
reported metric: IC50

Check out these entries, answers already filled in.
{"molecule": "O=C(CNCc1ccc(Cl)cc1Cl)c1cccc([N+](=O)[O-])c1", "IC50": "< 10000 nM"}
{"molecule": "CN1Cc2c(Cl)cc(Cl)cc2[C@H](c2ccc(S(=O)(=O)NCCOCCOCCNC(=O)COCC(=O)NCCOCCOCCNS(=O)(=O)c3ccc([C@@H]4CN(C)Cc5c(Cl)cc(Cl)cc54)cc3)cc2)C1 (single isomer, unassigned)", "IC50": "< 100 nM"}
{"molecule": "CN1Cc2c(Cl)cc(Cl)cc2C(c2cccc(S(=O)(=O)NCCOCCOCCNC(=O)COCC(=O)NCCOCCOCCNS(=O)(=O)c3cccc(C4CN(C)Cc5c(Cl)cc(Cl)cc54)c3)c2)C1 (configuration not stated)", "IC50": "< 100 nM"}
{"molecule": "CN1Cc2c(Cl)cc(Cl)cc2C(c2cccc(S(=O)(=O)NCCOCCOCCNC(=O)CCC(=O)NCCOCCOCCNS(=O)(=O)c3cccc(C4CN(C)Cc5c(Cl)cc(Cl)cc54)c3)c2)C1 (configuration not stated)", "IC50": "< 100 nM"}
{"molecule": "CN1Cc2c(Cl)cc(Cl)cc2C(c2ccc(S(=O)(=O)NCCOCCOCCNC(=O)c3ccc(C(=O)NCCOCCOCCNS(=O)(=O)c4ccc(C5CN(C)Cc6c(Cl)cc(Cl)cc65)cc4)cc3)cc2)C1 (configuration not stated)", "IC50": "< 10000 nM"}
{"molecule": "CN1Cc2c(Cl)cc(Cl)cc2C(c2ccc(S(=O)(=O)NCCOCCOCCOCCNC(=O)c3ccc(C(=O)NCCOCCOCCOCCNS(=O)(=O)c4ccc(C5CN(C)Cc6c(Cl)cc(Cl)cc65)cc4)cc3)cc2)C1 (configuration not stated)", "IC50": "< 10000 nM"}

Kindly review the next molecule as well.
Asked: Could you tell me which IC50 is on file for CN1Cc2c(Cl)cc(Cl)cc2[C@H](c2cccc(S(=O)(=O)NCCOCCOCCNC(=O)Nc3ccc(NC(=O)NCCOCCOCCNS(=O)(=O)c4cccc([C@@H]5CN(C)Cc6c(Cl)cc(Cl)cc65)c4)cc3)c2)C1 (single isomer, unassigned) ?
Given back: < 100 nM
